# assay: Aqueous solubility of compound in fed state simulated intestinal fluid at pH 5.2
# Assay type: physicochemical
experimental_endpoint: solubility
Express the reported value numerically, then name its unit.

-- ask Fill in: solubility of `Clc1cc(-c2nnn[nH]2)ccc1-c1ccc(-n2ccnc2)cc1` is ___
-- reply 0.6 µg/mL

###

Exercise: for every item that follows, state its recorded bioavailability.
# assay: Oral bioavailability in C57/BL6 mouse at 30 mg/kg
# Type: ADME, organism-based
# reported_conditions: in vivo
Record the value in %, omitting the unit from your answer.

-- ask Fill in: bioavailability of `Clc1cc(-c2nnn[nH]2)ccc1-c1ccc(-n2ccnc2)cc1` is ___
-- reply 21

-- ask Fill in: bioavailability of `Cc1cc(-n2ccnc2)cnc1-c1ccc(-c2nnn[nH]2)cc1F` is ___
-- reply 49

Values were extracted from ChEMBL document CHEMBL4257571.
